Data provenance is ChEMBL document CHEMBL5665443.

Below, each entry is listed with its recorded inhibition.
# measured on: N-glycosylase/DNA lyase (Homo sapiens) (UniProt O15527)
# Sequence (O15527 whole entry): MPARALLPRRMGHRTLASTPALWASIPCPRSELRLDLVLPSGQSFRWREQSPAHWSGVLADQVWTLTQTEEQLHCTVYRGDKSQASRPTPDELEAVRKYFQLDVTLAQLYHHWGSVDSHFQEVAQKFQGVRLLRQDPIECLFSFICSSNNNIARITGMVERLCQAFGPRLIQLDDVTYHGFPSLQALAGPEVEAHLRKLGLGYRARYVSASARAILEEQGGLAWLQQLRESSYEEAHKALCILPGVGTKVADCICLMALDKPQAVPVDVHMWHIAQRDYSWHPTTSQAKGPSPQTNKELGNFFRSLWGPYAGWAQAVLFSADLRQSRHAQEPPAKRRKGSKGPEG
# assay context: Compound Concentration 10.0 uM, Hit No
Report the value in % with no unit label.

[[record]]
compound = "CCOC(=O)C1=C[C@]2(CC)CCCN3CCc4c(n1c1ccccc41)[C@@H]32"
measured_on = "N-glycosylase/DNA lyase (Homo sapiens) (UniProt O15527)"
units_text = "%"
readout_number = -8.62

[[record]]
compound = "CCCCN(Cc1ccccc1)C(=O)c1ccc(S(=O)(=O)Nc2ccccc2)cc1"
measured_on = "N-glycosylase/DNA lyase (Homo sapiens) (UniProt O15527)"
units_text = "%"
readout_number = 15.6

[[record]]
compound = "CN(C(=O)c1cnn2cccnc12)c1cc2c(cc1N1CCOCC1)C(=O)N(C[C@@H](F)C(C)(C)O)C2"
measured_on = "N-glycosylase/DNA lyase (Homo sapiens) (UniProt O15527)"
units_text = "%"
readout_number = -1.31

[[record]]
compound = "CCCCN1CCC(COC(=O)c2cc(Cl)c(N)c3c2OCCO3)CC1"
measured_on = "N-glycosylase/DNA lyase (Homo sapiens) (UniProt O15527)"
units_text = "%"
readout_number = -1.24

[[record]]
compound = "CC(C)NCC(O)COc1cccc2[nH]ccc12 (stereo not given)"
measured_on = "N-glycosylase/DNA lyase (Homo sapiens) (UniProt O15527)"
units_text = "%"
readout_number = -5.87


Entry Nc1ccc(C(=O)Nc2cccc(-c3nc(N4CCOCC4)c4oc5ncccc5c4n3)c2)cn1 : inhibition on N-glycosylase/DNA lyase (Homo sapiens) (UniProt O15527) = 23

Noted inhibition for CN(C)C(=O)c1cc2cnc(Nc3ccc(N4CCNCC4)cn3)nc2n1C1CCCC1 , tested on N-glycosylase/DNA lyase (Homo sapiens) (UniProt O15527): 4.33

---

# measured on: Uracil-DNA glycosylase (Homo sapiens) (UniProt P13051)
# Sequence (P13051 whole entry): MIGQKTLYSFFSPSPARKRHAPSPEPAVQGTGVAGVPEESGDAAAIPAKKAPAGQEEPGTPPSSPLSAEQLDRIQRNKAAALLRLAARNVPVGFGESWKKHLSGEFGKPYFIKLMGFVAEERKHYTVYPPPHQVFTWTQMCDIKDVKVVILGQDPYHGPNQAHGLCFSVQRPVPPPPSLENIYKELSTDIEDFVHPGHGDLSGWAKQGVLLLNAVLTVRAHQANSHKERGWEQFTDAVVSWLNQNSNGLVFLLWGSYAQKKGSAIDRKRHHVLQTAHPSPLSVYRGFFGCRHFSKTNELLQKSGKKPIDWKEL
# assay context: Compound Concentration 10.0 uM, Hit No
inhibition: recorded values
Record the value in %, omitting the unit from your answer.

[[record]]
smiles_str = "CC[C@H](Nc1c(C#N)c(-c2ccc(-c3cccc(C)c3F)cc2)nc2cnccc12)C(=O)O"
readout_number = 6.04

[[record]]
smiles_str = "Nc1c(C(=O)NCc2ccc(C(=O)NCCCC3CCCCC3)cc2)cnn1-c1ccccc1"
readout_number = 4.78


Summary for this compound, CS(=O)(=O)NC[C@H]1CC[C@H](Nc2nc3c(s2)CCSc2ccccc2-3)CC1 : inhibition is -8.36

Lab book: inhibition of COc1ccc(NC(=O)c2ccc(-c3ccc(-c4noc(C)n4)cc3C)cc2)cc1OCCN(C)C noted as 2

The compound CN(C)C(=O)c1cc2cnc(Nc3ccc(N4CCNCC4)cn3)nc2n1C1CCCC1 showed inhibition equal to 8.98

---

# measured on: Single-strand selective monofunctional uracil DNA glycosylase (Homo sapiens)
# assay context: Compound Concentration 10.0 uM, Hit No
Documented inhibition across a set of compounds
# output: bare number, implied unit %

[[record]]
compound = "Cn1c(=O)n(CCCO)c(=O)c2c1nc(Oc1cccc(OC(F)(F)F)c1)n2Cc1ccc(Cl)cc1"
units_text = "%"
readout_number = 10.3


Quick note, inhibition for COc1cc(-c2cncc(-c3ccc(N4CCN(C(C)C)CC4)cc3)c2C)cc(F)c1C(=O)N1CCCC1 landed at 28.7

Measured inhibition, COc1cccc([C@@H](C)NCCCc2ccccc2Cl)c1 : 3.94

The compound listed as CCOC(=O)C1=C[C@]2(CC)CCCN3CCc4c(n1c1ccccc41)[C@@H]32 shows inhibition equal to 1

Measured inhibition of CC[C@@H](Nc1c(C#N)c(-c2ccc(-c3cccc(C)c3F)cc2)nc2cnccc12)C(=O)O : 12.3

Summary for this compound, CCCn1c(=O)c2nc(C34CC5CC(CC3C5)C4)[nH]c2n(CCC)c1=O : inhibition is 5

---

The compounds listed here are annotated with their inhibition.
# measured on: Single-strand selective monofunctional uracil DNA glycosylase (Homo sapiens) (UniProt Q53HV7)
# Sequence (Q53HV7 whole entry): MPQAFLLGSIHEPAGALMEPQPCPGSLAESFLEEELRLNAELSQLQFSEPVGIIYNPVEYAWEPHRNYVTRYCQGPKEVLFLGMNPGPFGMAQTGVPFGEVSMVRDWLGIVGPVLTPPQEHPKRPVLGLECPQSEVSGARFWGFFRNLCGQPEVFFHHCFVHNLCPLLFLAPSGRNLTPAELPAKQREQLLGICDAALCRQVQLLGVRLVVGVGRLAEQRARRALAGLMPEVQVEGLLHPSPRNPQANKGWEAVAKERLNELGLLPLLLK
# assay context: Compound Concentration 10.0 uM, Hit No
Field format: number, assumed %, no unit text.

[[record]]
compound = "N[C@@H]1c2cccnc2[C@H](OC(=O)N2CCC(n3c(=O)[nH]c4ncccc43)CC2)CC[C@H]1c1cccc(F)c1F"
readout_number = -4.73


Noted for O=C(O)c1ccc2cc(-c3ccc(O)c(C45CC6CC(CC(C6)C4)C5)c3)ccc2c1 : its inhibition reads 17.5

The compound Cc1nc(N2CC[C@@H](O)C2)ncc1-c1cc(C(F)(F)F)cc2[nH]ncc12 showed inhibition equal to 10.3

Just so you know, measured inhibition for O=C(NCCNCC(O)COc1ccc(O)cc1)N1CCOCC1 (stereo not given) came out at -1.43

Summary for this compound, COc1ccc(COc2ccc(Cc3cnc(N)nc3N)cc2OC)cc1 : inhibition is 6.38

// field: inhibition; key: CC1=C(C#N)C(c2ccc3c(c2)c(NC(=O)c2ccccc2C)nn3C)C(C#N)=C(C)N1 ; value = 24.1

Entry N=C(N)SCCc1c[nH]cn1 — recorded inhibition = -7.4

For this compound ( CCCCN(Cc1ccccc1)C(=O)c1ccc(S(=O)(=O)Nc2ccccc2)cc1 ), measured inhibition is 26.3

Documented inhibition of O=C(O)COc1cccc(-c2ocnc2-c2nc(-c3ccccc3)c(-c3ccccc3)o2)c1 : -6.12

Given item C[C@H](N)COC(=O)[C@@H](CCCCN)NC(=O)Cc1c(-c2ccc3ccccc3c2)[nH]c2c1ccc1ccccc12 , the value recorded as its inhibition is 4.71

---

# measured on: G/T mismatch-specific thymine DNA glycosylase (Homo sapiens)
# assay context: Compound Concentration 10.0 uM, Hit No
Rule: True for inhibition not less than 40%, False for anything less.

[[record]]
compound = "CC(C)C(=O)N1CCC(c2cn(C)c3ncc(NC(=O)c4cccc(C#N)c4)c(C(F)(F)F)c23)CC1"
measured_on = "G/T mismatch-specific thymine DNA glycosylase (Homo sapiens)"
group_label = "True"

[[record]]
compound = "CN1C[C@H](C(=O)N[C@]2(C)O[C@@]3(O)[C@@H]4CCCN4C(=O)[C@H](Cc4ccccc4)N3C2=O)C[C@@H]2c3cccc4[nH]cc(c34)C[C@H]21"
measured_on = "G/T mismatch-specific thymine DNA glycosylase (Homo sapiens)"
group_label = "False"

[[record]]
compound = "Cc1noc([C@H]2C[C@@H](c3ccc(C(F)(F)F)cc3)CN(C(=O)N3CCS(=O)(=O)C3)C2)n1"
measured_on = "G/T mismatch-specific thymine DNA glycosylase (Homo sapiens)"
group_label = "True"


### Prompt Check this compound for inhibition at or above 40%: C[C@@H]1C[C@H](C)CN(c2ncc(Cl)c(Nc3ccc4c(c3)cc(OC(C)(C)C(=O)O)c(=O)n4C)n2)C1
### Response True

### Prompt Threshold query (inhibition >= 40%) on NS(=O)(=O)c1c(Cl)ccc(NC(=O)Nc2cccc(Cl)c2Cl)c1O
### Response False

### Prompt In plain terms: is recorded inhibition at least 40% for Cc1ccnc(Nc2nc(-c3ccccn3)cs2)c1 ?
### Response False

### Prompt Could you verify whether the entry CN1CCN(c2ccnc(NCCc3ccccc3)n2)CC1 shows inhibition of no less than 40%?
### Response True

### Prompt Assess whether reported inhibition for COc1cc2nc(N(C)CCCNC(=O)C3CCCO3)nc(N)c2cc1OC (stereo unspecified) sits at 40% or higher.
### Response False

### Prompt For this compound, is measured inhibition 40% or higher? CN(c1ncccc1CNc1ccnc(-c2cc3cc(Cl)ccc3[nH]2)n1)S(C)(=O)=O
### Response False

### Prompt Is it the case that CN1CCCC(n2nc(Cc3ccc(Cl)cc3)c3ccccc3c2=O)CC1 (stereo unspecified) has inhibition reaching or exceeding 40%?
### Response False

---

We begin with a simple list: items and their reported inhibition.
# measured on: UniProt:Q969S2
# Sequence (Q969S2 whole entry): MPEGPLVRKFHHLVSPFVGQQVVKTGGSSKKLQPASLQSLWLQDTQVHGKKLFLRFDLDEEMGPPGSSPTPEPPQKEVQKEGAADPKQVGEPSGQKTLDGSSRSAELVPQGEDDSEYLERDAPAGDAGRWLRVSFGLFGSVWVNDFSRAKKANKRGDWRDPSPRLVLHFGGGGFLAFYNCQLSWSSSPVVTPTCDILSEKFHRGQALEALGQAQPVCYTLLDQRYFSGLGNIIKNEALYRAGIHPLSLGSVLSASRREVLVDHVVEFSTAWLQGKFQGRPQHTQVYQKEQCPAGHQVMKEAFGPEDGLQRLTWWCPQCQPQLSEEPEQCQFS
# assay context: Compound Concentration 10.0 uM, Hit No
Express the reported value numerically, then name its unit.

Example entries and their recorded answers appear below.
[[record]]
compound = "CCCCCCCCc1ccc(CC[C@](N)(CO)COP(=O)(O)O)cc1"
reported_property = "inhibition"
result = "6.75%"

[[record]]
compound = "COc1cc(OC2CCN(C(C)=O)CC2)ccc1C(=O)N1CCC(N2C(=O)OCc3ccccc32)CC1"
reported_property = "inhibition"
result = "5.25%"

[[record]]
compound = "NCCc1c[nH]cn1"
reported_property = "inhibition"
result = "-0.234%"

[[record]]
compound = "NC1(c2ccc(-c3nc4ccn5c(=O)[nH]nc5c4cc3-c3ccccc3)cc2)CCC1"
reported_property = "inhibition"
result = "-9.46%"

[[record]]
compound = "CC(C)NCC(O)c1ccc(N)c(C#N)c1 (stereo not given)"
reported_property = "inhibition"
result = "-8.72%"

[[record]]
compound = "N#Cc1ccc(Cn2ccc(NC(=O)Cc3ccc(C4(C(F)(F)F)CC4)cc3)n2)nc1"
reported_property = "inhibition"
result = "-3.66%"

[[record]]
compound = "CCCCN(CCCC)C(=O)CN1C[C@@H](c2ccc3c(c2)OCO3)[C@H](C(=O)O)[C@H]1c1ccc(OC)cc1"
reported_property = "inhibition"
result = "-2.98%"

[[record]]
compound = "CC(C)c1c(NC(=O)Nc2ccc(Cl)cc2)c(=O)n(-c2ccccc2)n1C"
reported_property = "inhibition"
result = "-6.97%"

[[record]]
compound = "O=C(NCCN1CCC(n2c(=O)[nH]c3cc(Cl)ccc32)CC1)c1ccc(F)cc1"
reported_property = "inhibition"
result = "1.51%"

[[record]]
compound = "Clc1ccc2nsnc2c1NC1=NCCN1"
reported_property = "inhibition"
result = "0.515%"


Query Nc1nc2c(c(N3CCNCC3)n1)CCC1=C2[C@@H]2CCCC[C@@H]2O1 yields inhibition of 4.51%

Just so you know, measured inhibition for CN1CCCC(n2nc(Cc3ccc(Cl)cc3)c3ccccc3c2=O)CC1 (stereo not given) came out at 0.515%

Value of measured inhibition for the entry Cc1cc(NC(=O)NCCN2CCC(O)(Cc3ccccc3)CC2)c2ccccc2n1 : -1.88%

In plain terms, O=C(Nc1cc(-c2ccccc2)nn1-c1ccccc1F)c1ccc([N+](=O)[O-])cc1 has a documented inhibition of 2.96%

response.value for C[C@H](NC(=O)c1cnc2n1[C@](C)(Cc1ccc(C#N)cc1)C(=O)N2c1cc(Cl)c(F)c(Cl)c1)C(=O)NC1(c2ccccn2)CC1 (field: inhibition) = -4.83%
